Provenance of the data: ChEMBL document CHEMBL1140733

inhibition at 1 µM listing for selected compounds.
# System: HCT-15
# experimental.protocol: Cytotoxicity against multidrug-resistant human HCT15 cells at 1 uM by thymidine incorporation assay
# Assay type: functional
Square brackets hold non-standard residues; d marks the D form. Peptide text beside a SMILES is read from it. * marks the point of attachment. dNMeF = CN[C@H](Cc1ccccc1)C(=O)O; Cbz = O=C(OCc1ccccc1)*
Your reply should be a number followed by the unit it is expressed in.

- CC(C)C[C@@H]1NC(=O)[C@@H](Cc2ccccc2)NC(=O)[C@@H](CC(C)C)NC(=O)[C@@H](C(C)C)NC(=O)[C@H](CCCCN)NC1=O (HELM PEPTIDE1{K.[dV].[dL].[dF].L}$PEPTIDE1,PEPTIDE1,1:R1-5:R2$$$V2.0): 17%
- CC(C)C[C@@H]1NC(=O)[C@H](C)NC(=O)[C@H](CC(C)C)NC(=O)[C@H](CC(C)C)NC(=O)[C@H](Cc2ccccc2)NC1=O (HELM PEPTIDE1{A.L.F.L.L}$PEPTIDE1,PEPTIDE1,1:R1-5:R2$$$V2.0): 40%
- CC(C)C[C@@H]1NC(=O)[C@@H](Cc2ccccc2)NC(=O)[C@@H](CC(C)C)NC(=O)[C@@H](C(C)C)NC(=O)[C@H](CCCCNC(=O)OCc2ccccc2)NC1=O (cyclo(K(Cbz)[dV][dL][dF]L)): 13%

Read the next record carefully.
Please provide the recorded inhibition at 1 µM for CC(C)C[C@@H]1NC(=O)[C@H](Cc2ccccc2)NC(=O)[C@@H](Cc2ccccc2)N(C)C(=O)[C@H](C(C)C)NC(=O)[C@H](CCCCNC(=O)OCc2ccccc2)NC1=O (cyclo(FLK(Cbz)V[dNMeF])) , tested on HCT-15.
14%
